Answer each item with its documented Kd.
Molecular target: T1, Human SIRPαV2 (CAA71403.1), Extracellular Domain + His-Tag (human, UniProt P78324 31-373)
T1 construct: also called huSIRPαV2; hSIRPαV2; not shown: His-Tag
T1 sequence (P78324 other isoform, or with tags, fused parts or gaps): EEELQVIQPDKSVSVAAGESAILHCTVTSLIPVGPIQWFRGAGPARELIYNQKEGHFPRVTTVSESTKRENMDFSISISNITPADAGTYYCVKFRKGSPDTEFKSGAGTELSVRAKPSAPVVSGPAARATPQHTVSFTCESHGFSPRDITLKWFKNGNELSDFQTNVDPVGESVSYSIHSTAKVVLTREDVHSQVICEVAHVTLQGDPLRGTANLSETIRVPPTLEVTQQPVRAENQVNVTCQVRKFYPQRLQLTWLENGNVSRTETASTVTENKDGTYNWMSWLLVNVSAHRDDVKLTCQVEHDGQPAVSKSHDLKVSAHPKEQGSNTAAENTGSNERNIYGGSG
Assay: SPR, antibody captured on Protein A/G, ECD-His analyte, 1:1 fit
Method: The binding kinetics of anti-SIRPα antibodies to various SIRPα analytes are determined by surface plasmon resonance (SPR) using a Biacore 8K+(Cytiva). 1×HBS-EP+(Cytiva) is used as running buffer and for all the dilutions unless stated otherwise. […]

Antibody A15 (antibody, human IgG1, kappa, L234A L235A, V domains shown) VH: EVQLVESGGGLVQPGGSLRLSCAASGFTLSSYDMHWVRQAPGKGLEWVSAIGTAGDTYYTGSVKGRFTISRENAKNSLYLQMNSLRAEDTAVYYCVRGGVWDDAFDIWGQGTMVTVSS VL: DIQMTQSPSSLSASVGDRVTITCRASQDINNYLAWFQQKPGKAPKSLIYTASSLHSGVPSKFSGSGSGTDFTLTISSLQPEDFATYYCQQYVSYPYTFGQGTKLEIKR | 7.91 nM

Below: the item to evaluate.
Looking up Antibody E20 (antibody, human IgG1, kappa, L234A L235A, V domains shown) VH: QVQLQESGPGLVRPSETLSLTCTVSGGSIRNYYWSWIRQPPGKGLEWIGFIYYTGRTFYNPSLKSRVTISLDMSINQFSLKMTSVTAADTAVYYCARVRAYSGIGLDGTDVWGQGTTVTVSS VL: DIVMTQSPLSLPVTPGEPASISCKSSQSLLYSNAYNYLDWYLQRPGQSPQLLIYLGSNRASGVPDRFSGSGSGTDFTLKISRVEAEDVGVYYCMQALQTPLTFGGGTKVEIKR , I found its Kd recorded as 1.11 nM
